measurementDescription: Membrane permeability of the compound at pH 6.2 by PAMPA
Type: physicochemical
protocolConditions: read-out: Peff
measuredProperty: Papp (×10⁻⁶ cm/s)

INSERT INTO measurements (samplesmiles, unitname, recordedmeasurement) VALUES
  ('O=C(O)c1ccnc(-c2cn([C@@H]3CCCN(C(=O)c4ccccc4)C3)nn2)c1', '×10⁻⁶ cm/s', 0.41),
  ('COC(=O)c1ccnc(-c2cn([C@@H]3CCCN(C(=O)c4ccccc4)C3)nn2)c1', '×10⁻⁶ cm/s', 45);
